- EXPERIMENT NOTES: Study 1 Part 1: ascending single-dose PK in healthy men
- Format: in vivo, human
- MEASUREMENT CONTEXT: male, human, plasma, oral, 25 mg, 25 mg single dose, N = 6, read-out: Vss/F, Mean (SD)
ASSAY ENDPOINT: Vd/F (L)
The answer is to be given in L; state only the numeric part.

Any idea what Vd/F was measured for CC(C)(NC(=O)O[C@@H]1CN2CCC1CC2)c1csc(-c2ccc(F)cc2)n1 [Compound 2] ?
240

* * *

- EXPERIMENT NOTES: Study 1 Part 1: ascending single-dose PK in healthy men
- Format: in vivo, human
- MEASUREMENT CONTEXT: male, human, plasma, oral, 50 mg, 50 mg single dose, N = 6, read-out: Vss/F, Geometric mean (CV)
ASSAY ENDPOINT: Vd/F
Give me the value, and tack the unit on after it.

So what's the measured Vd/F for this one? CC(C)(NC(=O)O[C@@H]1CN2CCC1CC2)c1csc(-c2ccc(F)cc2)n1
232 L

* * *

- EXPERIMENT NOTES: Study 1 Part 1: ascending single-dose PK in healthy men
- Assay type: in vivo, human
- MEASUREMENT CONTEXT: male, human, plasma, oral, 5 mg, 5 mg single dose, N = 6, read-out: Cmax, Geometric mean (CV)
ASSAY ENDPOINT: Cmax (ng/mL)
Write the value in ng/mL as a bare number.

Reported Cmax for CC(C)(NC(=O)O[C@@H]1CN2CCC1CC2)c1csc(-c2ccc(F)cc2)n1 : what is it?
14.6

* * *

- EXPERIMENT NOTES: Study 1 Part 1: ascending single-dose PK in healthy men
- Assay type: in vivo, human
- MEASUREMENT CONTEXT: male, human, plasma, oral, 2 mg, 2 mg single dose, N = 6, read-out: Cmax, Mean (SD)
ASSAY ENDPOINT: Cmax (ng/mL)
// units = ng/mL; emit number, no label

What does the data say about its Cmax? Entry: CC(C)(NC(=O)O[C@@H]1CN2CCC1CC2)c1csc(-c2ccc(F)cc2)n1
5.7

* * *

Parameter 'readout' = log10 of IC50; parameter 'system' = glucosylceramide synthase (Homo sapiens (Human), UniProt Q16739).
Sequence (Q16739 whole entry): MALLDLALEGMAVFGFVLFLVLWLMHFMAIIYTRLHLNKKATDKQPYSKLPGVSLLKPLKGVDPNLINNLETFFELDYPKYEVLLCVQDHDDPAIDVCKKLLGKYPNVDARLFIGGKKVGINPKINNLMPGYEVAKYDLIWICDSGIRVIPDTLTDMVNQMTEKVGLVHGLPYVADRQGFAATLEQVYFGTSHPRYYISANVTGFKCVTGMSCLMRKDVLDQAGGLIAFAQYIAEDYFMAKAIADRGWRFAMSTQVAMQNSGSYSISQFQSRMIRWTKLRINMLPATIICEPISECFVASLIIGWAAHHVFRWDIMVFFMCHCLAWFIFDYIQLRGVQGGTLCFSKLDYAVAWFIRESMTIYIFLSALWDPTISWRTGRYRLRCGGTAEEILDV
The common logarithm of IC50 in µM is what is listed.

Example entries begin here.
MOLECULE: COc1ccc(-c2ccc(C3(NC(=O)OC4CN5CCC4CC5)CC3)cc2)cc1 (centres unmarked) [Compound 9]
ASSAY ENDPOINT: log10 of IC50
VALUE OBSERVED: 0.15

MOLECULE: COCCOc1ccc(-c2ccc(C(C)(C)NC(=O)OC3CN4CCC3CC4)nc2)cc1 (centres unmarked) [Compound 21]
ASSAY ENDPOINT: log10 of IC50
VALUE OBSERVED: 1.70

Entry CC(C)(NC(=O)O[C@@H]1CN2CCC1CC2)c1cc(-c2ccc(F)cc2)ns1 [Compound 11] has what log10 of IC50?
1.17

What log10 of IC50 value was documented for this molecule, CC(C)(NC(=O)O[C@@H]1CN2CCC1CC2)c1nc(-c2ccc(F)cc2)cs1 [Compound 12] ?
1.31

* * *

- EXPERIMENT NOTES: Study 1 Part 1: ascending single-dose PK in healthy men
- Type: in vivo, human
- MEASUREMENT CONTEXT: male, human, plasma, oral, 100 mg, 100 mg single dose, N = 6, read-out: AUCinf, Geometric mean (CV)
ASSAY ENDPOINT: AUC(0-inf) (ng·h/mL)
// return numeric value only (unit: ng·h/mL, not printed)

Any idea what AUC(0-inf) was measured for CC(C)(NC(=O)O[C@@H]1CN2CCC1CC2)c1csc(-c2ccc(F)cc2)n1 ?
14100
